Below, each of the compounds is paired with its reported pEC50 value.
Biological target: UniProt:Q6DWJ6
Sequence (Q6DWJ6 1-353): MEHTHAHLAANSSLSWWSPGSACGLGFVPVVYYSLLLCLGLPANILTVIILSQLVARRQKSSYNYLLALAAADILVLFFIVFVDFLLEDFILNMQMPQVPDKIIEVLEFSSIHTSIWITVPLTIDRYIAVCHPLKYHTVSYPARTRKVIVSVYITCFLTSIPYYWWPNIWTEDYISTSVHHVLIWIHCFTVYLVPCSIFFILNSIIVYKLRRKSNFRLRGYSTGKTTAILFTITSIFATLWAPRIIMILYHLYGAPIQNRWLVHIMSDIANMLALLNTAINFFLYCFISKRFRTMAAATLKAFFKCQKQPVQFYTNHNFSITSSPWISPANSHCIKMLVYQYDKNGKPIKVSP
Experiment: GPR139 Antagonist titration assay (calcium detection, HEK-GPR139 cells, vs EC80 of S-JNJ-63533054)
Lab note — pEC50 values are minus log10 of concentrations in M.

Sample answers from the record:
Looking up Cc1cccc(NC(=O)CCC(=O)OCc2ccc(Br)cc2)c1 , I see its pEC50 listed as 5.64

Looking up CCN1C(=O)c2cccc3c(S(=O)(=O)Nc4cccc(F)c4)ccc1c23 , I see its pEC50 listed as 5.16

Looking up O=C(CSc1nc(-c2ccccc2)cn1-c1ccc(F)cc1)Nc1ccccc1 , I see its pEC50 listed as 5.30

Next:
Looking up O=C(CCCC(=O)OCC(Cl)=C(Cl)Cl)Nc1ccccc1F , I see its pEC50 listed as 5.20

Looking up Cc1ccc(-n2cc(-c3ccccc3)nc2OCC(=O)Nc2ccccc2C)cc1 , I see its pEC50 listed as 5.28

Looking up COc1ccc(-c2noc(CN3CCCN(c4ccc(F)cc4)CC3)n2)c(OC)c1OC , I see its pEC50 listed as 5.08

From: patent US20250099420A1
